- Test system: K4 kissing-loop RNA reporter;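 further: bound reporter read as fluorescence of individual clusters on recovered sequencing chips by microscopy, with normalized cluster intensities fitted with a binding model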
- PROCEDURE_DETAILS: apparent KD of K4 kissing-loop reporter; higher = weaker reporter binding
- CONDITIONS: Eterna round: R107; input ligand: none
Entries and their apparent KD of K4 kissing-loop reporter
// note: answer is a bare numeric in nM

Look over these answered cases.
| RESIDUES | DATA_VALUE |
| --- | --- |
| GCCUACGAUGCAGGAUAUAGCUCGCGAGUGAUGUUCGCAGCUGUAUGGUAGUAAGCUUCCACGUGUCUAGAAGGGCAUCGUAGGC [#01 K4 FMN B Exclusion] | 93.6 |
| CCUUUAGGCUCGGCCGCCACUCCAGUGAUGUUGGAGGUGCGUACAGAGCUAGAAAGCGUUAUCAGGAGGACCGGGAGUUUUAACG [Leorte] | 103 |

We now examine a further sequence.
Q: Under K4 kissing-loop RNA reporter: apparent KD of K4 kissing-loop reporter value of GCUGCCAUGGCAGGAUAUAUAAAUGCUGAGUGAUGUUCUGCAUCAUAUGUCCCUGACCGCGGCGGUGUAGAAGGGCCAUGGCAGC ?
Ans: 107
